System: A549
assay: Cytotoxicity against human A549 cells by MTT assay
Type: functional
conditionParameters: read-out: ED50 (the source's name)
Attribute: EC50

{"columns": ["compound", "targetDesc", "EC50"],
 "data": [
  ["C=C1CC/C=C(/C)[C@@H](O)C[C@@H]2[C@@H]1CC2(C)C [SUBEROSOL D]", "A549", "4.2 µg/mL"],
  ["C=C1CC/C=C(\\C)C(=O)C[C@@H]2[C@@H]1CC2(C)C [BUDDLEDIN C]", "A549", "3.8 µg/mL"],
  ["C=C1CC/C=C(\\C)[C@H](O)C[C@@H]2[C@@H]1CC2(C)C [SUBEROSOL C]", "A549", "5.6 µg/mL"],
  ["C=C1CC/C=C(/C)C(=O)C[C@@H]2[C@@H]1CC2(C)C [BUDDLEDIN D]", "A549", "8.9 µg/mL"],
  ["C=C1CC[C@H]2O[C@]2(C)[C@@H](O)C[C@@H]2[C@@H]1CC2(C)C [SUBEROSOL A]", "A549", "> 50 µg/mL"]
]}

Moving on to another compound below.
(Q) Entry under review: C=C1CC[C@H]2O[C@]2(C)[C@H](O)C[C@@H]2[C@@H]1CC2(C)C [SUBEROSOL B] . Reported EC50?
(A) > 50 µg/mL
